- Tested on: T1, human soluble urokinase plasminogen activator receptor (hsuPAR) (human, UniProt Q03405 23-303, limits assumed)
- T1 construct: Target antigen of the off-rate screen; also called human suPAR; rhuPAR-His
- T1 sequence (Q03405 23-303 limits assumed): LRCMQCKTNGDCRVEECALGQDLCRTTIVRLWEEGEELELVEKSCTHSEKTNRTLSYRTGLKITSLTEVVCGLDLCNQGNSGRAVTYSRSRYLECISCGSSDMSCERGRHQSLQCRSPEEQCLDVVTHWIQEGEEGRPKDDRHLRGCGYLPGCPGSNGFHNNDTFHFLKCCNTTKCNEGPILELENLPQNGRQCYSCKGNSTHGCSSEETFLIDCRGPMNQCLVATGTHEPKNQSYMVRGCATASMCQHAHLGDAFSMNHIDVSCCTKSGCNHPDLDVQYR
- Assay overview: BLI (Octet) off-rate screen of scFv clones
Measured endpoint: koff (s⁻¹)
Just the number please, in s⁻¹, no unit attached.

Form field: reported koff of suPAR_DB03_C06 (scFv, V domains shown, screened as scFv) VH: QVQLVQSGAEVKKPGASVKVSCKASGYTFTDYYVHWVRQAPGQGLEWMGWIDHEGGSTSYDQKFQGRVTMTRDTSTSTVYMELSSLRSEDTAVYYCARGYDVDWFVYWGQGTLVTVSS VL: DIQMTQSPSSLSASVGDRVTITCSASSSVSYMYWYQQKPGKAPKLLIYRTSNLASGVPSRFSGSGSGTDFTLTISSLQPEDFATYYCQQYHSYPPTFGGGTKVEIK
0.00318

Form field: reported koff of suPAR_DB03_E08 (scFv, V domains shown, screened as scFv) VH: QVQLVQSGAEVKKPGASVKVSCKASGYTFTHYYMHWVRQAPGQGLEWMGWIDPEGGSTIYDQKFQGRVTMTRDTSTSTVYMELSSLRSEDTAVYYCARGYDVDWFVYWGQGTLVTVSS VL: DIQMTQSPSSLSASVGDRVTITCRASSSVSYMYWYQQKPGKAPKLLIYRTSNLASGVPSRFSGSGSGTDFTLTISSLQPEDFATYYCQQYHSYPPTFGGGTKVEIK
0.005

Form field: reported koff of suPAR_DB03_D10 (scFv, V domains shown, screened as scFv) VH: QVQLVQSGAEVKKPGASVKVSCKASGYTFTSYYMHWVRQAPGQGLEWMGWIDPENGNTIYAQKFQGRVTMTRDTSTSTVYMELSSLRSEDTAVYYCARGYDVDWFVYWGQGTLVTVSS VL: DIQMTQSPSSLSASVGDRVTITCSARSSVSYMYWYQQKPGKAPKLLIYRTSNLQSGVPSRFSGSGSGTDFTLTISSLQPEDFATYYCQQYHSYPPTFGGGTKVEIK
0.00527
